Below: a set of entries, each annotated with reported self-cleavage.
B1: HDV Ribozyme (parent)
chain: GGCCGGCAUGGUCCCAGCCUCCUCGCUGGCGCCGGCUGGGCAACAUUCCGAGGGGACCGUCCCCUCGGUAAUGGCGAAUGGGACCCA

variants of: B1; test: self-cleavage, relative activity (ratio to wild type); higher = more cleavage; co-transcriptional
value_type: self-cleavage

variant_notation="G11U C26A" value_observed=0.689
variant_notation="G35C U72C" value_observed=0.156
variant_notation="A45U C62A" value_observed=0.791
variant_notation="G40U A87C" value_observed=0.732
variant_notation="G6U C44G" value_observed=0.268
variant_notation="A16C G55U" value_observed=0.425
variant_notation="C32G C33G" value_observed=0.0906
variant_notation="U72A A77C" value_observed=0.199
variant_notation="C18G C36U" value_observed=0.0852
variant_notation="G6C C26U" value_observed=0.646
variant_notation="C41A C86A" value_observed=0.815
variant_notation="C18A C66U" value_observed=0.0779
variant_notation="C44A G80C" value_observed=0.109
variant_notation="A16U C58U" value_observed=0.962
variant_notation="C14U U27C" value_observed=0.723
variant_notation="G34C A83C" value_observed=0.0898
variant_notation="C33A C63U" value_observed=0.503
variant_notation="G35C G74A" value_observed=0.0779
variant_notation="C4U G74C" value_observed=0.0791
variant_notation="G1U C66U" value_observed=0.296
variant_notation="U9G C48U" value_observed=1.05
variant_notation="G6A C48G" value_observed=0.657
variant_notation="G2C G50A" value_observed=0.138
variant_notation="G59U G82A" value_observed=0.338
variant_notation="G73C A87U" value_observed=0.626
variant_notation="G34C G52C" value_observed=0.267
variant_notation="C49A U79C" value_observed=0.61
variant_notation="U12C C84A" value_observed=0.222
variant_notation="C19U C30G" value_observed=0.0936
variant_notation="G73A C75A" value_observed=0.246
variant_notation="U47A G52U" value_observed=0.845
variant_notation="C30A G82A" value_observed=0.0898
variant_notation="C32G G74A" value_observed=0.126
variant_notation="A8G C30U" value_observed=0.806
variant_notation="U23G A71U" value_observed=0.633
variant_notation="A56C U60G" value_observed=0.68
variant_notation="G28C A56G" value_observed=0.107
variant_notation="C41G G76U" value_observed=0.989
variant_notation="A43C G74U" value_observed=0.415
variant_notation="C48A C85G" value_observed=0.867
variant_notation="C21A A71G" value_observed=0.0573
variant_notation="U65G G80A" value_observed=0.288
variant_notation="U47G C48U" value_observed=1.02
variant_notation="U37A C84A" value_observed=0.128
variant_notation="C4A C75G" value_observed=0.0396
variant_notation="C15U G35U" value_observed=0.252
